These entries and their values trace back to ChEMBL document CHEMBL3994617.

# Test system: Zika virus
# TEST SUMMARY: Antiviral activity against Zika virus infected in African green monkey Vero cells assessed as inhibition of viral RNA replication at 10 uM after 24 hrs by RT-PCR method relative to control
# Type: functional
In this section we review reported inhibition at 10 µM values for a set of molecules.
Provide only the numeric value, understood in %.

What measured inhibition at 10 µM goes with NCCCNc1cc(C(F)(F)F)nc2c(C(F)(F)F)cccc12 ?
79.9

Continuing:
What measured inhibition at 10 µM goes with FC(F)(F)c1cc(NCCCl)c2cccc(C(F)(F)F)c2n1 ?
86.9

What measured inhibition at 10 µM goes with NCCNc1cc(C(F)(F)F)nc2c(C(F)(F)F)cccc12 ?
78.6

What measured inhibition at 10 µM goes with O[C@@H](c1cc(C(F)(F)F)nc2c(C(F)(F)F)cccc12)[C@H]1CCCCN1 [(S,R)-MEFLOQUINE] ?
78.8

What measured inhibition at 10 µM goes with OCCNc1cc(C(F)(F)F)nc2c(C(F)(F)F)cccc12 ?
74.4

What measured inhibition at 10 µM goes with COc1cc(C(F)(F)F)nc2c(C(F)(F)F)cccc12 ?
12

What measured inhibition at 10 µM goes with CCCCNc1cc(C(F)(F)F)nc2c(C(F)(F)F)cccc12 ?
58.8

###

# TEST SUMMARY: Selectivity index, ratio of CC50 for African green monkey Vero cells to EC50 for Zika virus infected in African green monkey Vero cells
# Format: toxicity
# CONDITION LABEL: read-out: Ratio CC50/EC50
In this section we review reported selectivity ratio values for a set of molecules.

What measured selectivity ratio goes with OCCNc1cc(C(F)(F)F)nc2c(C(F)(F)F)cccc12 ?
236

What measured selectivity ratio goes with NCCNc1cc(C(F)(F)F)nc2c(C(F)(F)F)cccc12 ?
243

What measured selectivity ratio goes with NCCCNc1cc(C(F)(F)F)nc2c(C(F)(F)F)cccc12 ?
143

What measured selectivity ratio goes with FC(F)(F)c1cc(NCCCl)c2cccc(C(F)(F)F)c2n1 ?
225

Query molecule follows.
What measured selectivity ratio goes with O[C@@H](c1cc(C(F)(F)F)nc2c(C(F)(F)F)cccc12)[C@H]1CCCCN1 [(S,R)-MEFLOQUINE] ?
58

###

# TEST SUMMARY: Cytotoxicity against African green monkey Vero cells assessed as reduction in cell viability after 72 hrs by XTT assay
# Format: cell-based
# CONDITION LABEL: chlorocebus sabaeus
MEASURE: CC50 at 72 h

Illustrative cases are given below, each with its answer.
What measured CC50 at 72 h goes with O[C@@H](c1cc(C(F)(F)F)nc2c(C(F)(F)F)cccc12)[C@H]1CCCCN1 [(S,R)-MEFLOQUINE] ?
212 µM

What measured CC50 at 72 h goes with NCCNc1cc(C(F)(F)F)nc2c(C(F)(F)F)cccc12 ?
195 µM

What measured CC50 at 72 h goes with FC(F)(F)c1cc(NCCCl)c2cccc(C(F)(F)F)c2n1 ?
316 µM

What measured CC50 at 72 h goes with OCCNc1cc(C(F)(F)F)nc2c(C(F)(F)F)cccc12 ?
189 µM

What measured CC50 at 72 h goes with NCCCNc1cc(C(F)(F)F)nc2c(C(F)(F)F)cccc12 ?
287 µM

Query compound follows.
What measured CC50 at 72 h goes with CCN(CC)CCCC(C)Nc1ccnc2cc(Cl)ccc12 (stereo unspecified) ?
412 µM

###

# System: Zika virus
# TEST SUMMARY: Potency index, ratio of mefloquine EC50 to test compound EC50 for Zika virus infected in African green monkey Vero cells
# Format: functional
MEASURE: Ratio EC50
Respond numerically, and do not add a unit to the figure.

Illustrative cases are given below, each with its answer.
What measured Ratio EC50 goes with FC(F)(F)c1cc(NCCCl)c2cccc(C(F)(F)F)c2n1 ?
3

What measured Ratio EC50 goes with NCCCNc1cc(C(F)(F)F)nc2c(C(F)(F)F)cccc12 ?
2

What measured Ratio EC50 goes with NCCNc1cc(C(F)(F)F)nc2c(C(F)(F)F)cccc12 ?
5

Query compound follows.
What measured Ratio EC50 goes with OCCNc1cc(C(F)(F)F)nc2c(C(F)(F)F)cccc12 ?
5
